Target: PD-1/PD-L1 (Homo sapiens (Human), UniProt Q9NZQ7)
Sequence (Q9NZQ7 19-238): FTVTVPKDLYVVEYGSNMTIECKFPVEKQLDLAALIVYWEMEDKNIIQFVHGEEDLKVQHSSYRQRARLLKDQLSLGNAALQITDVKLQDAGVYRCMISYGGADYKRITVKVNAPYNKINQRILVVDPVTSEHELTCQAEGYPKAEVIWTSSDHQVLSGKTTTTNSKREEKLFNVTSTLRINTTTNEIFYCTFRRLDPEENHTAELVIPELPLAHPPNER
Test: PD-1/PD-L1 biochemical protein-protein interaction assay (ALPHA)
Conditions: 0.3 nM His tagged PD-L1, 2.5 nM biotinylated Fc-PD-1, 60 minutes at 25° C., read-out: IC50 PD-L1-PD1
pIC50: −log10 of the molar value.
Consider the following molecules and their measured pIC50 readings.
VALUE KIND: pIC50

> print(dat)
                                   molecule  test.value
1  COc1nc(-c2cccc(-c3cccc(-c4cnc(CN5CC6(CCC(=O)N6)C5)c(OC)n4)c3Cl)c2F)cnc1CN1CC2(CCC(=O)N2)C1       10.10
2  COc1nc(-c2cccc(-c3cccc(-c4cnc(CN5CCC(c6cnccn6)C5)c(OC)n4)c3Cl)c2Cl)cnc1CNC[C@@H]1CCC(=O)N1 (stereo partly drawn)       10.15
3  COc1nc(-c2cccc(-c3cccc(-c4cnc(CNC[C@@H]5CCC(=O)N5)c(OC)n4)c3Cl)c2Cl)ccc1CN1CC(C)(CO)C1       10.08

###

Reported pIC50 values for a set of compounds
Target: PD-1/PD-L1 (Homo sapiens (Human))
Test: PD-1/PD-L1 biochemical protein-protein interaction assay (ALPHA)
Conditions: 0.3 nM His tagged PD-L1, 2.5 nM biotinylated Fc-PD-1, 60 minutes at 25° C., read-out: IC50 PD-L1-PD1
pIC50: −log10 of the molar value.
VALUE KIND: pIC50

COMPOUND	VALUE KIND	TEST VALUE
COc1nc(-c2cccc(-c3cccc(-c4cnc(CN5CC[C@@H](O)[C@H](C)C5)c(OC)n4)c3Cl)c2Cl)cnc1CNC[C@@H]1CCC(=O)N1 [compound 231]	pIC50	10.19
COc1nc(-c2cccc(-c3cccc(-c4cnc(CN5CC[C@](C)(O)C5)c(OC)n4)c3Cl)c2Cl)cnc1CNC[C@@H]1CCC(=O)N1 [compound 510]	pIC50	9.72
CCO[C@H]1C[C@H](NCc2ncc(-c3cccc(-c4cccc(-c5cnc(CNC[C@@H]6CCC(=O)N6)c(OC)n5)c4Cl)c3Cl)nc2OC)C1 [compound 233]	pIC50	9.35
COc1nc(-c2cccc(-c3cccc(-c4cnc(CN5CC(C#N)C5)c(OC)n4)c3Cl)c2Cl)cnc1CNC[C@@H]1CCC(=O)N1 [compound 10]	pIC50	9.57
COc1nc(-c2cccc(-c3cccc(-c4cnc(CNC[C@@H]5CCC(=O)N5)c(OC)n4)c3Cl)c2Cl)cnc1CNCCCc1nc2ccccc2[nH]1 [compound 419]	pIC50	9.27
COc1nc(-c2cccc(-c3cccc(-c4cnc(CN5CCC[C@@H]5CO)c(OC)n4)c3Cl)c2Cl)cnc1CNC[C@@H]1CCC(=O)N1 [compound 23]	pIC50	9.66
COc1nc(-c2cccc(-c3cccc(-c4cnc(CN[C@H]5CC[C@H](O)C5)c(OC)n4)c3Cl)c2Cl)cnc1CNC[C@@H]1CCC(=O)N1 [compound 355]	pIC50	9.89
CN(C)c1nc(-c2cccc(-c3cccc(-c4cnc(CNC[C@@H]5CCC(=O)N5)c(N(C)C)n4)c3Cl)c2Cl)cnc1CNC[C@@H]1CCC(=O)N1 [compound 105]	pIC50	9.52
COc1nc(-c2cccc(-c3cccc(-c4cnc(CN[C@@H](C)[C@H]5CCC(=O)N5)c(OC)n4)c3Cl)c2Cl)cnc1CN[C@@H](C)[C@H]1CCC(=O)N1 [compound 317]	pIC50	9.66
COc1nc(-c2cccc(-c3cccc(-c4cnc(CNC[C@@H]5CCC(=O)N5)c(OC)n4)c3Cl)c2Cl)cnc1CNCCc1cncc(O)c1 [compound 412]	pIC50	9.73
COc1nc(-c2cccc(-c3cccc(-c4cnc(CN[C@@H]5CC[C@@H]6CC(=O)N[C@@H]65)c(OC)n4)c3Cl)c2Cl)cnc1CN[C@@H]1CC[C@@H]2CC(=O)N[C@@H]21 [compound 388]	pIC50	8.91
COc1nc(-c2cccc(-c3cccc(-c4cnc(CNCC5CN(S(C)(=O)=O)C5)c(OC)n4)c3Cl)c2Cl)cnc1CNCC1CN(S(C)(=O)=O)C1 [compound 546]	pIC50	10.05
COc1nc(-c2cccc(-c3cccc(-c4cnc(CN5CCCC6(C5)NC(=O)NC6=O)c(OC)n4)c3Cl)c2Cl)cnc1CNC[C@@H]1CCC(=O)N1 (some centres unmarked) [compound 293]	pIC50	9.29
COc1nc(-c2cccc(-c3cccc(-c4cnc(CN5CC[C@H](C(C)(C)O)C5)c(OC)n4)c3Cl)c2Cl)cnc1CNC[C@@H]1CCC(=O)N1 [compound 502]	pIC50	10.19
O=C1CC[C@@H](CNCc2ncc(-c3cccc(-c4cccc(-c5cnc(CNC[C@@H]6CCC(=O)N6)c(Cl)n5)c4Cl)c3Cl)nc2Cl)N1 [compound 111]	pIC50	9.53
COc1nc(-c2cccc(-c3cccc(-c4cnc(CN5C[C@@H](F)C[C@H]5CO)c(OC)n4)c3Cl)c2Cl)cnc1CNC[C@@H]1CCC(=O)N1 [compound 40]	pIC50	9.62
COc1nc(-c2cccc(-c3cccc(-c4cnc(CNC(C)(C)CO)c(OC)n4)c3Cl)c2Cl)cnc1CNC(C)(C)CO [compound 384]	pIC50	9.81
CNC(=O)[C@H]1CCCN1Cc1ncc(-c2cccc(-c3cccc(-c4cnc(CNC[C@@H]5CCC(=O)N5)c(OC)n4)c3Cl)c2Cl)nc1OC [compound 20]	pIC50	9.26
COc1nc(-c2cccc(-c3cccc(-c4cnc([C@@H](C)N)c(OC)n4)c3Cl)c2Cl)cnc1[C@@H](C)N [compound 386]	pIC50	9.06
COc1nc(-c2cccc(-c3cccc(-c4cnc(CNC[C@@H]5CCC(=O)N5)c(OC)n4)c3Cl)c2Cl)cnc1CNCC1CCNC1=O (some centres unmarked) [compound 658]	pIC50	9.71
CSc1nc(-c2cccc(-c3cccc(-c4cnc(CN5CC6(CNC(=O)C6)C5)c(SC)n4)c3Cl)c2Cl)cnc1CN1CC2(CNC(=O)C2)C1 [compound 89]	pIC50	9.54
COc1nc(-c2cccc(-c3cccc(-c4cnc(CNC56CC(C5)C6)c(OC)n4)c3Cl)c2Cl)cnc1CNC12CC(C1)C2 [compound 86]	pIC50	8.52
COc1nc(-c2cccc(-c3cccc(-c4cnc(CN5CCC(O)(CO)C5)c(OC)n4)c3Cl)c2Cl)cnc1CNC[C@@H]1CCC(=O)N1 (some centres unmarked) [compound 523]	pIC50	9.74

// data source = patent US10710986B2
